Readings of IC50 for the listed compounds
- Test system: DLD-1
- Procedure details: Inhibition of in vitro proliferation of tumor cells (CTG, CellTiter-Glo)
- Assay type: cell-based
- Condition description: Homo sapiens, 120 h; Table 3, chirally resolved compounds; DLD-1 cells; 5 days of culture; CTG reagent; read-out: Proliferation inhibitory activity IC50 (nM) DLD-1
- Protocol: Assay objective: To detect the inhibitory effects of the drug compounds on tumor cell proliferation, for example, the inhibitory activity thereof on the in vitro proliferation of NCI-H716, NCI-H1975, NCI-H1373, NCI-H647, NCI-H520, BT474, DLD-1, NCI-N87, NUGC-4, SNU-423, MKN-45, SK-OV-3, OVCAR3, Ls174T, HCC1954, and ES2 tumor cells. […] Plate reading: The 96-well cell culture plate was taken out and placed in a microplate reader, and the chemiluminescence was measured using the microplate reader. […]

// known answers, use as guide
Compound	Tgt	IC50
COc1ccc([C@@]23Oc4cc(-c5ncco5)cc(OC)c4[C@]2(O)[C@@H](CNC(=O)CN(C)C)C[C@H]3c2cccc(N)c2)cc1 (single isomer, unassigned)	DLD-1	< 10 nM
COc1cc(-c2ncco2)cc2c1[C@]1(O)[C@H](O)[C@H](C(=O)N(C)OC)[C@@H](c3cccc(N)c3)[C@]1(c1ccc(C#N)cc1)O2	DLD-1	< 10 nM

Note: attention shifts to another entry.
Data request: # input compound: COc1ccc([C@@]23Oc4cc(-c5ncco5)cc(OC)c4[C@]2(O)[C@@H](N(C)C)C[C@H]3c2cccc(N)c2)cc1 (single isomer, unassigned) ; wanted: its IC50
Data returned: < 10 nM
